Data export: pIC50 values recorded with NDM-1 (Klebsiella pneumoniae, UniProt C7C422).
Sequence (C7C422 29-270, looked up, species assumed): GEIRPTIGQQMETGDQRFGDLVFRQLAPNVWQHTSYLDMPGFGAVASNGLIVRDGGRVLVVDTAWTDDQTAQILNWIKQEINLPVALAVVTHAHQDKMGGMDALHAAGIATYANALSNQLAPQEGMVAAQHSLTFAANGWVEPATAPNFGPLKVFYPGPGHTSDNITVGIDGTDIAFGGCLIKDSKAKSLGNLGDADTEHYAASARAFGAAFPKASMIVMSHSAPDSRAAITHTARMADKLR
Friendly reminder that pIC50 comes from taking -log10 of the concentration in mol/L.

Field: example entries. Status: answers known.
>>> print(df.to_string())
                                   molecule  observed_result
0  C[C@H](CN)NS(=O)(=O)c1ccc(N2CCCn3ccnc32)c(-c2nnn[nH]2)c1S(N)(=O)=O [Example 17]             9.44
1  NS(=O)(=O)c1c(S(=O)(=O)N[C@@H]2CCNC2)ccc(N2CCn3ncnc3C2)c1-c1nn[nH]n1 [Example 1]             8.80
2  NC[C@@H](O)CNS(=O)(=O)c1ccc(N2CC[C@H](CO)n3ccnc32)c(-c2nn[nH]n2)c1S(N)(=O)=O [Example 40]             8.94

// returns pIC50 for NC[C@H](O)CNS(=O)(=O)c1ccc(N2CCCn3ccnc32)c(-c2nnn[nH]2)c1S(N)(=O)=O [Example 18] with NDM-1 (Klebsiella pneumoniae, UniProt C7C422); value = 8.73
